System: K.pneumoniae PCI-602
Experiment: In vitro antibacterial activity, agar plate dilution method (MIC)
Assay type: cell-based
Settings: Klebsiella pneumoniae, PCI602; K.pneumoniae PCI-602; Mueller Hinton agar, inoculum 10⁶ CFU/ml, 37°C, 16 hours; read-out: Minimum Inhibitory Concentration (MIC: µg/ml)
endpointLabel: MIC

>  <compound>
CO/N=C(\C(=O)NC1C(=O)N2C(C(=O)[O-])=C(C[n+]3ccc4cc(OC(C)=O)c(OC(C)=O)cc4c3)CSC12)c1csc(N)n1 (stereo not drawn)

>  <endpointLabel>
MIC

>  <resultValue>
< 0.006 µg/mL

$$$$
>  <compound>
CON=C(C(=O)NC1C(=O)N2C(C(=O)[O-])=C(C[n+]3ccc4c(O)cccc4c3)CS[C@H]12)c1csc(N)n1 (stereo partly drawn) [Reference Ex. 2, reference compound]

>  <endpointLabel>
MIC

>  <resultValue>
< 0.006 µg/mL

$$$$
>  <compound>
CC(C)ON=C(C(=O)NC1C(=O)N2C(C(=O)[O-])=C(C[n+]3ccc4cc(O)c(O)cc4c3)CS[C@H]12)c1csc(N)n1 (stereo partly drawn)

>  <endpointLabel>
MIC

>  <resultValue>
< 0.006 µg/mL

$$$$

----------
Test system: M.morganii GN5407
Experiment: In vitro antibacterial activity, agar plate dilution method (MIC)
Type: cell-based
Conditions: Morganella morganii; M.morganii GN5407 (β-Lactamase-producing strain); Mueller Hinton agar, inoculum 10⁶ CFU/ml, 37°C, 16 hours; read-out: Minimum Inhibitory Concentration (MIC: µg/ml)

>  <molecule>
CO/N=C(\C(=O)N[C@@H]1C(=O)N2C(C(=O)O)=C(COC(C)=O)CS[C@H]12)c1csc(N)n1 [Cefotaxime, reference compound]

>  <MIC / µg/mL>
0.05

$$$$
>  <molecule>
C#CCON=C(C(=O)NC1C(=O)N2C(C(=O)[O-])=C(C[n+]3ccc4cc(O)c(O)cc4c3)CS[C@H]12)c1csc(N)n1 (stereo partly drawn) [Ex. 7]

>  <MIC / µg/mL>
0.05

$$$$
>  <molecule>
CON=C(C(=O)NC1C(=O)N2C(C(=O)[O-])=C(C[n+]3ccc4c(O)cccc4c3)CS[C@H]12)c1csc(N)n1 (stereo partly drawn) [Reference Ex. 2, reference compound]

>  <MIC / µg/mL>
0.025

$$$$

----------
Tested on: K.pneumoniae PCI-602
Experiment: In vitro antibacterial activity, agar plate dilution method (MIC)
Assay type: cell-based
Conditions: Klebsiella pneumoniae, PCI602; K.pneumoniae PCI-602; Mueller Hinton agar, inoculum 10⁶ CFU/ml, 37°C, 16 hours; read-out: Minimum Inhibitory Concentration (MIC: µg/ml)
MIC by entry:

>  <molecule>
CC(C)(ON=C(C(=O)NC1C(=O)N2C(C(=O)[O-])=C(C[n+]3ccc4c(O)cccc4c3)CSC12)c1csc(N)n1)C(=O)O (stereo not drawn) [Reference Ex. 4, reference compound]

>  <MIC>
0.2 µg/mL

$$$$
>  <molecule>
C=C(O/N=C(\C(=O)NC1C(=O)N2C(C(=O)[O-])=C(C[n+]3ccc4cc(O)c(O)cc4c3)CSC12)c1csc(N)n1)C(=O)O (stereo not drawn)

>  <MIC>
< 0.006 µg/mL

$$$$
>  <molecule>
Nc1nc(/C(=N/OC2(C(=O)O)CCCC2)C(=O)NC2C(=O)N3C(C(=O)[O-])=C(C[n+]4ccc5cc(O)c(O)cc5c4)CSC23)cs1 (stereo not drawn)

>  <MIC>
< 0.006 µg/mL

$$$$

These data points were gathered from patent EP0238060B1.
